System: Plasmodium berghei
test-description: Antimalarial activity against Plasmodium berghei infected in mouse assessed as change in mean survival time at 10 mg/kg (reference value: 6.2 +/- 0.5 days)
Format: functional
Recorded MST determines the group label, using bottom (below 6 days), middle (6 days to below 10 days), top (10 days or more)

molecule="CCCCN(CCCC)CCC(O)c1cc2c(Cl)cc(Cl)cc2c2cc(C(F)(F)F)ccc12 (stereo in doubt; (+)-8) [HALOFANTRINE]" discrete_label=top

Class (by measured MST) for Nc1nc(N)c2c(n1)CCC(S(=O)(=O)c1ccc3ccccc3c1)C2 (single isomer, unassigned; (-))
middle

Classify this molecule: CCCCN(CCCC)CC(O)c1cc(-c2ccc(C(F)(F)F)cc2)nc(-c2ccc(C(F)(F)F)cc2)c1 (racemic)
bottom

Entry CCCCN(CCCC)CC(O)c1cc(-c2ccc(C(F)(F)F)cc2)nc(-c2ccc(C(F)(F)F)cc2)c1 (single isomer, unassigned; (-)) belongs to which category?
bottom

Assign a category based on measured MST for CCCCN(CCCC)CC(O)c1cc(-c2ccc(Cl)c(Cl)c2)nc2c(Cl)cc(Cl)cc12 (single isomer, unassigned; (+)) and give only the class name.
middle

Categorize the following entry: CCCCN(CCCC)CCC(O)c1cc2c(Cl)cc(Cl)cc2c2cc(C(F)(F)F)ccc12 (stereo in doubt; (-)-8) [HALOFANTRINE]
bottom

Record Nc1nc(N)c2c(n1)CCC(S(=O)(=O)c1ccc3ccccc3c1)C2 (racemic) — which class?
top

Class label required: CCCCN(CCCC)CCC(O)c1cc2c(Cl)cc(Cl)cc2c2cc(C(F)(F)F)ccc12 (racemic) [HALOFANTRINE]
top

Where would CCCCN(CCCC)CC(O)c1cc(-c2ccc(C(F)(F)F)cc2)nc(-c2ccc(C(F)(F)F)cc2)c1 (stereo in doubt; (+)-2) land among the classes by reported MST?
bottom

Lab note: sort CCCCN(CCCC)CC(O)c1cc(-c2ccc(Cl)c(Cl)c2)nc2c(Cl)cc(Cl)cc12 (racemic) into the matching MST band.
top
